Reference source for all entries: PubChem BioAssay AID1259418

Listed here are molecules together with their documented max activity.
assay: inhibitors of Toxoplasma growth in IFN-γ-primed HeLa – cell-based, ME49Luc, luciferase, 72 h, dose response (AID 1259418); conditions: T. gondii ME49Luc in IFN-y HeLa, active compounds read low, -100% = high-dose IFN-γ control wells; at 19.5 µM unless noted
In all, about 3,400 compounds went through this assay and about 840 (25%) were called active. Another 11% or so got no clear call; they are omitted. These entries were drawn from the full list. Results with a measured potency or affinity are listed apart.

{"MOLECULE": "Cc1cccc(-c2ccc(C3[C@H]4CNC[C@@H]3N4Cc3cccc(F)c3)cc2)c1 (stereo not given in full)", "max activity": "19.8% (inactive)"}
{"MOLECULE": "Cc1ccc(-n2ncc3c(NCCCN4CCCC4=O)ncnc32)c(C)c1", "max activity": "50% (inactive)"}
{"MOLECULE": "COc1ccccc1CNC(=O)CC1N=C2c3ccccc3N=C(SCc3cc(=O)n4ccccc4n3)N2C1=O (stereo not given)", "max activity": "17.5% [at 0.16 µM] (inactive)"}
{"MOLECULE": "O=C(NCCc1csc(-c2ccccc2)n1)C1CCN(C(=O)COc2ccccc2)CC1", "max activity": "-18.1% [at 0.68 µM] (inactive)"}

Now for the molecule whose max activity we want.
Q: // query max activity value for entry CCOc1ccccc1-c1nc(CN(c2ccc(OC)cc2)S(=O)(=O)c2ccccc2)c(C)o1
A: 7.8% (inactive)

###

assay: inhibitors of Toxoplasma growth in IFN-γ-primed HeLa – cell-based, ME49Luc, luciferase, 72 h, dose response (AID 1259418); conditions: T. gondii ME49Luc in IFN-y HeLa, active compounds read low, -100% = high-dose IFN-γ control wells; at 19.5 µM unless noted
Hit rate of the full screen: of about 3,400 compounds, about 840 (25%) were called active. Another 11% or so got no clear call; they are omitted. Only a sample is shown. Potency and affinity values are given separately.
Listed here are compounds together with their documented max activity.

Examples with answers:
{"CHEM SMILES": "Cc1oc(-c2cccc(Cl)c2)nc1CN1CCN(C(=O)Nc2ccccc2C(F)(F)F)CC1", "max activity": "-9.46% [at 2.6 µM] (inactive)"}
{"CHEM SMILES": "Cc1oc(-c2ccccc2)nc1Cn1nnc(-c2nc(-c3ccc(Cl)c(F)c3)no2)c1C", "max activity": "7.02% (inactive)"}
{"CHEM SMILES": "O=C(Cc1ccc(F)cc1)N1CCC2(CC1)Nc1cc(F)ccc1-n1cccc12", "max activity": "16% [at 0.16 µM] (inactive)"}

Q: // query max activity value for entry COc1ccc(NC(=O)N2CCN(Cc3nc(-c4cccc(Cl)c4)oc3C)CC2)cc1OC
A: -22.8% (inactive)

Q: // query max activity value for entry CC(C)CCNc1nc(-c2ccc(Cl)cc2)nc2ccccc12
A: -13.6% [at 0.35 µM] (inactive)

###

assay: inhibitors of Toxoplasma growth in IFN-γ-primed HeLa – cell-based, ME49Luc, luciferase, 72 h, dose response (AID 1259418); settings: T. gondii ME49Luc in IFN-y HeLa, active compounds read low, -100% = high-dose IFN-γ control wells; at 19.5 µM unless noted
In all, about 3,400 compounds went through this assay and about 840 (25%) were called active. Inconclusive results (about 11%) are left out. Not all results are given here. Potency and affinity values are given separately.
Listed here are compounds together with their documented max activity.

Examples with answers:
{"COMPOUND": "COc1ccc(-c2nc(Nc3ccc(Cl)cc3C)c3ccccc3n2)cc1", "max activity": "-19.8% [at 10 µM] (inactive)"}
{"COMPOUND": "COc1ccc(OC)c(NC(=O)Nc2ccc(-c3nc(-c4ccc(C)cc4C)co3)cc2)c1", "max activity": "12.1% [at 0.35 µM] (inactive)"}

Q: // query max activity value for entry COC[C@@H]1CCC[C@]12CN(S(=O)(=O)c1cccs1)CCO2
A: -9.83% [at 0.6 µM] (inactive)

Q: // query max activity value for entry Cc1cccc(S(=O)(=O)N2CC[C@@H]3[C@H](CO)Nc4ccc(-c5ccccc5F)cc4[C@@H]32)c1
A: 25.7% [at 10 µM] (inactive)

Q: // query max activity value for entry Cc1nc(OCC(=O)Nc2ccccc2Cl)c2ccccc2n1
A: 28.8% [at 0.35 µM] (inactive)

Q: // query max activity value for entry Cc1ccc(S(=O)(=O)Nc2ccc(-c3nc(-c4ccc(C)c(C)c4)co3)cc2)cc1
A: 33.8% [at 10 µM] (inactive)

Q: // query max activity value for entry O=C(CCC1N=C2c3ccccc3N=C(SCc3cc(=O)n4ccccc4n3)N2C1=O)NCc1cccs1 (centres undefined)
A: 13.4% [at 0.16 µM] (inactive)

Q: // query max activity value for entry CCOC(=O)CSC1=Nc2ccccc2C2=NC(CCC(=O)NCc3cccs3)C(=O)N12 (centres undefined)
A: 13.6% [at 10 µM] (inactive)

Q: // query max activity value for entry Cc1ccc(CNC2=NCCNC23CCN(S(=O)(=O)c2ccc(CC(C)C)cc2)CC3)cc1
A: 13.1% [at 10 µM] (inactive)

Q: // query max activity value for entry O=C(CC(F)(F)F)N1C[C@@H]2[C@H](c3ccccc31)[C@H](CO)N2CC1CCOCC1
A: 54.6% (inactive)

Q: // query max activity value for entry CCc1onc(C)c1C1CCCN1Cc1cn(CC(=O)OC)c2ccc(OC)cc12 (centres undefined)
A: 13.3% [at 5 µM] (inactive)

Q: // query max activity value for entry COc1ccccc1CNC(=O)CC1N=C2c3ccccc3N=C(SCc3ccc(F)cc3)N2C1=O (centres undefined)
A: 11.2% [at 10 µM] (inactive)

Q: // query max activity value for entry Cc1ccc(CSC2=Nc3ccccc3C3=NC(CC(=O)NCc4cccs4)C(=O)N23)c(C)c1 (centres undefined)
A: 21.5% [at 0.68 µM] (inactive)

Q: // query max activity value for entry O=C(CC1N=C2c3ccccc3N=C(SCc3cc(=O)n4cc(Cl)ccc4n3)N2C1=O)NCc1cccs1 (centres undefined)
A: 41.3% [at 0.35 µM] (inactive)

Q: // query max activity value for entry Cc1ccc(C2=NC3(CCN(CC(=O)Nc4c(C)cccc4C)CC3)NC2=O)cc1
A: 10.4% [at 0.16 µM] (inactive)

###

assay: inhibitors of Toxoplasma growth in IFN-γ-primed HeLa – cell-based, ME49Luc, luciferase, 72 h, dose response (AID 1259418); conditions: T. gondii ME49Luc in IFN-y HeLa, active compounds read low, -100% = high-dose IFN-γ control wells; at 19.5 µM unless noted
Among all 3,400 compounds or so, about 840 (25%) were called active. About 11% were inconclusive and are not listed. Not all results are given here. Potency and affinity values are given separately.
Listed here are molecules together with their documented max activity.

Examples with answers:
{"MOLECULE": "Cc1ccc(-c2noc(-c3nnn(Cc4nc(-c5ccc(C)cc5)oc4C)c3C)n2)cc1", "max activity": "8.64% (inactive)"}
{"MOLECULE": "CCc1nc(OCC(=O)NCc2ccc(F)cc2)c2ccccc2n1", "max activity": "-17.9% [at 0.68 µM] (inactive)"}
{"MOLECULE": "Cc1nc(OCC(=O)Nc2ccc(C)c(F)c2)c2ccccc2n1", "max activity": "21.5% [at 10 µM] (inactive)"}
{"MOLECULE": "Cc1oc(-c2cccc(Cl)c2)nc1Cn1nnc(-c2nc(-c3ccccn3)no2)c1C", "max activity": "-10.2% [at 5 µM] (inactive)"}
{"MOLECULE": "CS(=O)(=O)NCc1cnc2n1CCN(Cc1cccs1)CC2", "max activity": "48.8% (inactive)"}

Q: // query max activity value for entry COc1ccc(-c2nc(N3CCN(c4ccccc4)CC3)c3ccccc3n2)cc1
A: 18.5% (inactive)

Q: // query max activity value for entry CCc1nc(OCC(=O)NCc2ccc(C)cc2)c2ccccc2n1
A: 13.9% (inactive)

Q: // query max activity value for entry Cc1cccc(-c2nc(Cn3nnc(-c4nc(-c5ccccc5)no4)c3C)c(C)o2)c1
A: 4.79% [at 0.68 µM] (inactive)

Q: // query max activity value for entry CCOc1ccc(N2CC(NC(=O)C(=O)c3c[nH]c4ccccc34)CC2=O)cc1 (stereo unspecified)
A: 10.2% [at 10 µM] (inactive)

Q: // query max activity value for entry CCOc1ccc(-c2ccc(OCCNC(=O)c3sc(-c4ccccc4)nc3C)nn2)cc1
A: 10.6% (inactive)

Q: // query max activity value for entry CCc1nc(OCC(=O)Nc2ccc(C)cc2Cl)c2ccccc2n1
A: 18.6% [at 0.68 µM] (inactive)

Q: // query max activity value for entry Cc1ccc(OCC(=O)Nc2ccc(-c3nc(-c4ccc(C)cc4)co3)cc2)cc1
A: 20.2% (inactive)

Q: // query max activity value for entry COc1ccc(-c2nc(N3CCC(N4CCCCC4)CC3)c3ccccc3n2)cc1
A: -13.2% [at 10 µM] (inactive)

Q: // query max activity value for entry CCc1nc(OCC(=O)Nc2ccc(C)c(C)c2)c2ccccc2n1
A: 17.1% [at 0.35 µM] (inactive)

Q: // query max activity value for entry Cc1cccc(-c2nc(Cn3nnc(-c4nc(-c5ccc(Cl)c(F)c5)no4)c3C)c(C)o2)c1
A: 6.89% (inactive)

Q: // query max activity value for entry COc1ccc(-c2nc(N3CCN(Cc4ccccc4)CC3)c3ccccc3n2)cc1
A: 20.1% (inactive)

Q: // query max activity value for entry COc1ccc(-c2nc(N3CCN(c4ccc(OC)cc4)CC3)c3ccccc3n2)cc1
A: 51.6% (inactive)

Q: // query max activity value for entry COc1ccc(-c2nc(Cn3nnc(-c4nc(-c5ccccc5OC)no4)c3C)c(C)o2)cc1
A: -5.44% [at 1.35 µM] (inactive)

Q: // query max activity value for entry Cc1ccc(-c2noc(-c3nnn(Cc4nc(-c5cccc(C)c5)oc4C)c3C)n2)cc1
A: 7.12% [at 0.68 µM] (inactive)

Q: // query max activity value for entry COc1ccc(-c2nc(Cn3nnc(-c4nc(-c5cc(OC)cc(OC)c5)no4)c3C)c(C)o2)cc1
A: 4.11% [at 0.35 µM] (inactive)

Q: // query max activity value for entry COc1ccc(-c2nc(N3CCCCC3)c3ccccc3n2)cc1
A: 24.4% (inactive)
